system: HeLa cells expressing mt-Keima and YFP-Parkin (HeLa MKYP); test: Human mt-Keima mitophagy assay; format: cell-based; conditions: Homo sapiens, HeLa, 16 hrs with compound, then FCCP/oligomycin for 6 hours, FACS
measure_name: EC50 (nM)

// solved cases for EC50 follow
F[C@H]1CCN([C@H]2COc3ccccc3[C@@H]2Nc2ncnc3[nH]c(C4CC4)cc23)C1 :: 154
C[C@@H]1CN([C@H]2COc3c(F)cccc3[C@@H]2Nc2ncnc3[nH]c(C(F)(F)F)cc23)CCO1 :: 230
c1ccc2c(c1)OC[C@H](N1CCOC3(CC3)C1)[C@H]2Nc1ncnc2[nH]c(C3CC3)cc12 :: 244
FC(F)(F)c1cc2c(N[C@H]3c4ccccc4OC[C@@H]3N3CCOC4(CC4)C3)ncnc2[nH]1 :: 404
Fc1ccc2c(c1)OC[C@H](N1CCOC3(CC3)C1)[C@H]2Nc1ncnc2[nH]c(C(F)(F)F)cc12 :: 560

I = CO[C@H]1CCCN([C@H]2COc3ccccc3[C@@H]2Nc2ncnc3[nH]c(C(F)(F)F)cc23)C1
II = C[C@@H]1CN([C@H]2COc3cccc(F)c3[C@@H]2Nc2ncnc3[nH]c(C(F)(F)F)cc23)CCO1
Just curious, which one has the larger EC50 reading, I or II ? Your choice should be expressed through its label. I

a = C[C@@H]1CN([C@H]2COc3cc(F)ccc3[C@@H]2Nc2ncnc3[nH]c(C4CCC4)cc23)CCO1
b = F[C@H]1CCN([C@H]2COc3ccccc3[C@@H]2Nc2ncnc3[nH]c(C(F)(F)F)cc23)C1
Just curious, which one has the larger EC50 reading, a or b ? Your choice should be expressed through its label. b

P = C[C@@H]1CCN([C@H]2COc3ccccc3[C@@H]2Nc2ncnc3[nH]c(C(F)(F)F)cc23)C1
Q = FC1CN([C@H]2COc3ccccc3[C@@H]2Nc2nccc3[nH]c(C(F)(F)F)cc23)C1
Just curious, which one has the larger EC50 reading, P or Q ? Your choice should be expressed through its label. Q
(Q: 200 nM, P: 30 nM)

###

test system: HeLa cells expressing mt-Keima and YFP-Parkin (HeLa MKYP); assay: Human mt-Keima mitophagy assay; type: cell-based; conditions: Homo sapiens, HeLa, 16 hrs with compound, then FCCP/oligomycin for 6 hours, FACS
pEC50: −log10 of the molar value.
measure_name: pEC50

OC1([C@H]2COc3ccccc3[C@@H]2Nc2ncnc3[nH]c(C4CC4)cc23)CCOCC1 [EP-0042202] :: 6.67

A = C[C@@H]1CN([C@H]2COc3ccc(F)cc3[C@@H]2Nc2ncnc3[nH]c(C(F)(F)F)cc23)CCO1 [EP-0043863]
B = FC(F)C1CN([C@H]2COc3ccccc3[C@@H]2Nc2ncnc3[nH]c(C(F)(F)F)cc23)C1 [EP-0043831]
C = N#C[C@H]1CCN([C@H]2COc3ccccc3[C@@H]2Nc2ncnc3[nH]c(C4CC4)cc23)C1 [EP-0042930]
Arrange items by their pEC50 values in increasing order. API: response body holds the labels in the requested order. B, A, C
(B: 6.22, A: 6.77, C: 7.42)

###

Parameter Mito-Safety Index (highest safe dose/EC50): see the listing below.
system: SKOV3 cells; assay: In vitro mitosafety (glucose/galactose) assay; type: cell-based; settings: highest mito-safe dose (gal/glc >0.80, IC20, SKOV3 cells, 20 hours) divided by mt-Keima EC50
Format: numeric value only, no unit, no commentary.

// solved cases for Mito-Safety Index (highest safe dose/EC50) follow
F[C@@H]1CCN([C@H]2COc3ccccc3[C@@H]2Nc2ncnc3[nH]c(C4CC4)cc23)C1 :: 71.21
C[C@@H]1CN([C@H]2COc3cc(F)ccc3[C@@H]2Nc2ncnc3c2cc(C(F)(F)F)n3C)CCO1 :: 99.6
CO[C@@H]1CCN([C@H]2COc3cc(F)ccc3[C@@H]2Nc2ncnc3[nH]c(C(F)(F)F)cc23)C1 :: 68.6

Can you look up the measured Mito-Safety Index (highest safe dose/EC50) of `c1ccc2c(c1)OC[C@H](N1CCOC3(CC3)C1)[C@H]2Nc1ncnc2[nH]c(C3CC3)cc12` for me? 102.55
